Source listed as PubChem BioAssay.

I'd be grateful if you could share measured growth inhibition for these entries.
- ASSAY DETAILS: antimalarial activity against Dd2 strain (AID 2302);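 note: 0% = DMSO untreated growth and 100% = chloroquine plus artemisinin killed control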
- ASSAY CONDITIONS: P. falciparum Dd2 in RBCs, LDH growth readout, 72 h; at 2 µM; hits give high values
Just the number in %, nothing appended.

Look up growth inhibition for this molecule: COc1cc(NCCCNCc2cn(S(=O)(=O)c3ccccc3)c3ccccc23)nc2ccccc12 77

I'd like to know its growth inhibition. The molecule in question is COc1cc(SC)c(Br)cc1-c1nc2ccncc2[nH]1 9

Query (molecule): Fc1ccc2nc(-c3ccc(-c4ccc(CN5CCN(CCN6CCOCC6)CC5)cc4)cc3)[nH]c2c1 ; field requested: growth inhibition 100

Look at this molecule and give its reported growth inhibition. Cc1ccc(NC(=O)c2ccc(N3CCN(c4ccncc4)CC3)cc2)cc1F 79
